# log10 of IC50 per record follows
Target: human orexin-2 receptor (Homo sapiens (Human), UniProt O43614)
Sequence (O43614 whole entry): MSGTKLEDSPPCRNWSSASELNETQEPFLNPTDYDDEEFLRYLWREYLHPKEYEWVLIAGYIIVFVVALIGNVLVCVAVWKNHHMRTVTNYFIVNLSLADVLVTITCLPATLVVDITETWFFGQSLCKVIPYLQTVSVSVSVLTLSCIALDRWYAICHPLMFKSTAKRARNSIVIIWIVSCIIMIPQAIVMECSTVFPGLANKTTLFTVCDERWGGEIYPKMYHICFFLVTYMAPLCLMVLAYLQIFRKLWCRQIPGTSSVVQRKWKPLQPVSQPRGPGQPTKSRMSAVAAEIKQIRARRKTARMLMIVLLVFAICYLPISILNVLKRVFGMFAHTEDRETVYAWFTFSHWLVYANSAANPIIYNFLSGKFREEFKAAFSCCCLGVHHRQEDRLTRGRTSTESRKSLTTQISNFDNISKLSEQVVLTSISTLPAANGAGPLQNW
Test: hOX2R FLIPR Ca2+ flux assay
Details: CHO cells expressing the human orexin-2 receptor; agonist 70 pM Ala-6,12 orexin-A
Experimental Endpoint: log10 of IC50 (log10 of the value in nM)

{"Cpd Smiles": "N#Cc1ccnc(O[C@@H]2CC[C@@H](CO)N(C(=O)c3ccccc3-n3nccn3)C2)c1", "System Tested": "human orexin-2 receptor (Homo sapiens (Human), UniProt O43614)", "log10 of IC50": 1.23}
{"Cpd Smiles": "COc1c(C#N)ccnc1O[C@@H]1CC[C@@H](CO)N(C(=O)c2cccnc2OCC(F)(F)F)C1", "System Tested": "human orexin-2 receptor (Homo sapiens (Human), UniProt O43614)", "log10 of IC50": 0.95}
{"Cpd Smiles": "COc1c(C#N)ccnc1O[C@@H]1CC[C@@H](CO)N(C(=O)c2ccccc2OC(F)F)C1", "System Tested": "human orexin-2 receptor (Homo sapiens (Human), UniProt O43614)", "log10 of IC50": 1.59}
{"Cpd Smiles": "CC1(C)OC(=O)c2c1ccnc2O[C@@H]1CC[C@@H](CO)N(C(=O)c2ccccc2-n2nccn2)C1", "System Tested": "human orexin-2 receptor (Homo sapiens (Human), UniProt O43614)", "log10 of IC50": 1.32}
{"Cpd Smiles": "COc1c(C#N)ccnc1O[C@@H]1CC[C@@H](CO)N(C(=O)c2ccccc2OC(F)(F)F)C1", "System Tested": "human orexin-2 receptor (Homo sapiens (Human), UniProt O43614)", "log10 of IC50": 1.15}
{"Cpd Smiles": "COc1c(C#N)ccnc1O[C@@H]1CC[C@@H](CO)N(C(=O)c2cccnc2OC(C)C)C1", "System Tested": "human orexin-2 receptor (Homo sapiens (Human), UniProt O43614)", "log10 of IC50": 1.43}
{"Cpd Smiles": "COC(=O)c1c(OC)cccc1O[C@@H]1CC[C@@H](CO)N(C(=O)c2ccccc2-n2nccn2)C1", "System Tested": "human orexin-2 receptor (Homo sapiens (Human), UniProt O43614)", "log10 of IC50": 2.30}
{"Cpd Smiles": "Cc1c(C#N)ccnc1O[C@@H]1CC[C@@H](C(C)(C)O)N(C(=O)c2ccccc2-n2nccn2)C1", "System Tested": "human orexin-2 receptor (Homo sapiens (Human), UniProt O43614)", "log10 of IC50": 1.43}
{"Cpd Smiles": "Cc1c(C#N)ccnc1O[C@@H]1CC[C@@H](CO)N(C(=O)c2ccccc2-n2nccn2)C1", "System Tested": "human orexin-2 receptor (Homo sapiens (Human), UniProt O43614)", "log10 of IC50": 0.90}
{"Cpd Smiles": "CCOc1ccccc1C(=O)N1C[C@H](Oc2nccc(C#N)c2OC)CC[C@H]1CO", "System Tested": "human orexin-2 receptor (Homo sapiens (Human), UniProt O43614)", "log10 of IC50": 1.08}
{"Cpd Smiles": "Cc1ccnc(O[C@@H]2CC[C@@H](CO)N(C(=O)c3ccccc3-n3nccn3)C2)c1", "System Tested": "human orexin-2 receptor (Homo sapiens (Human), UniProt O43614)", "log10 of IC50": 1.26}
{"Cpd Smiles": "CC(C)(O)[C@@H]1CC[C@@H](Oc2cc(C#N)ccn2)CN1C(=O)c1ccccc1-n1nccn1", "System Tested": "human orexin-2 receptor (Homo sapiens (Human), UniProt O43614)", "log10 of IC50": 1.49}
{"Cpd Smiles": "O=C(c1ccccc1-n1nccn1)N1C[C@H](Oc2cc(OCC(F)F)ccn2)CC[C@H]1CO", "System Tested": "human orexin-2 receptor (Homo sapiens (Human), UniProt O43614)", "log10 of IC50": 1.78}
{"Cpd Smiles": "COC(=O)c1c(C#N)cccc1O[C@@H]1CC[C@@H](CO)N(C(=O)c2ccccc2-n2nccn2)C1", "System Tested": "human orexin-2 receptor (Homo sapiens (Human), UniProt O43614)", "log10 of IC50": 1.69}

----------
Target: hOX1R (Homo sapiens, UniProt O43613)
Assay: hOX1R FLIPR Ca2+ flux assay
Type: cell-based
Settings: CHO cells expressing orexin-1 receptor; agonist 70 pM Ala-6,12 orexin-A; read-out: hOX1R FLIPR IC50
pIC50: −log10 of the molar value.

{"Compound": "Cc1ccnc(O[C@@H]2CC[C@@H](CO)N(C(=O)c3ccccc3-n3nccn3)C2)c1 [Example 5]", "Rel": "=", "pIC50": 5.77}
{"Compound": "COc1c(C#N)ccnc1O[C@@H]1CC[C@@H](CO)N(C(=O)c2ccccc2OC(F)(F)F)C1 [Example 14]", "Rel": "<", "pIC50": 5.00}
{"Compound": "COC(=O)c1c(OC)cccc1O[C@@H]1CC[C@@H](CO)N(C(=O)c2ccccc2-n2nccn2)C1 [Example 1]", "Rel": "<", "pIC50": 5.00}
{"Compound": "CCOc1ccccc1C(=O)N1C[C@H](Oc2nccc(C#N)c2OC)CC[C@H]1CO [Example 10]", "Rel": "<", "pIC50": 5.00}
{"Compound": "CC1(C)OC(=O)c2c1ccnc2O[C@@H]1CC[C@@H](CO)N(C(=O)c2ccccc2-n2nccn2)C1 [Example 2]", "Rel": "<", "pIC50": 5.00}
{"Compound": "Cc1c(C#N)ccnc1O[C@@H]1CC[C@@H](CO)N(C(=O)c2ccccc2-n2nccn2)C1 [Example 7]", "Rel": "=", "pIC50": 5.75}
{"Compound": "COc1c(C#N)ccnc1O[C@@H]1CC[C@@H](CO)N(C(=O)c2cccnc2OC(C)C)C1 [Example 12]", "Rel": "<", "pIC50": 5.00}
{"Compound": "COc1c(C#N)ccnc1O[C@@H]1CC[C@@H](CO)N(C(=O)c2cccnc2OCC(F)(F)F)C1 [Example 11]", "Rel": "=", "pIC50": 5.39}
{"Compound": "Cc1c(C#N)ccnc1O[C@@H]1CC[C@@H](C(C)(C)O)N(C(=O)c2ccccc2-n2nccn2)C1 [Example 16]", "Rel": "=", "pIC50": 5.88}

----------
Target: UniProtKB O43613
Test: hOX1R FLIPR Ca2+ flux assay
Format: cell-based

{"Molecule": "O=C(c1ccccc1-n1nccn1)N1C[C@H](Oc2cc(OCC(F)F)ccn2)CC[C@H]1CO [Example 6]", "IC50": "> 10 µM"}
